Target: T1, mature myostatin (recombinant, dimeric) (mouse polyprotein used for in-house …, UniProt O08689 268-376)
T1 sequence: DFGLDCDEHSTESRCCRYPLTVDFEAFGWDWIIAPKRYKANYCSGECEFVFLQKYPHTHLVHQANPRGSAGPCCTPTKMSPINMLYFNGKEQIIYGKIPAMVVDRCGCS
Assay: cell-based or functional assay
readout name: Mean IC50, A204 in vitro activity assay (nM)
Respond with the bare value in nM.

[in] I am curious: what Mean IC50, A204 in vitro activity assay value has been reported for 10B3 chimera (antibody, human IgG1, kappa, V domains shown, Mouse variable regions on human IgG1/kappa wild type constant regions; also called HCLC; HcLc) VH: EVQLQQSGPELVKPGASVKISCKASGYSFTGYFMHWVKQSHGNILDWIGNIYPYNGVSNYNQRFKAKATLTVDKSSSTAYMELRSLTSEDSAVYYCARRYYYGTGPADWYFDVWGTGTLVTVSS VL: DIKMTQSPSSMYASLRERVTITCKASQDINSYLSWFQQKPGKSPKTLIYRANRLVDGVPSRFSGSGSGQDYSLTISSLEYEDMGIYYCLQCDEFPLTFGAGTKLELKR ?
[out] 8.45
